# Assay Method Text: Pharmacokinetic study in Sprague Dawley rats (oral gavage)
# Assay type: in vivo
# Applied Conditions: male, Sprague-Dawley, rat, plasma, po, 20 mg/kg, Etoposide AUC0–6h, group F: etoposide 20 mg/kg + zosuquidar 6.3 mg/kg + 10% v/v polysorbate 20 oral
Measurement Name: AUC(0-t) (ng·h/mL)
Answer in ng·h/mL, number only, no unit symbol.

Request: Report AUC(0-t) for COc1cc([C@@H]2c3cc4c(cc3[C@@H](O[C@@H]3O[C@@H]5CO[C@@H](C)O[C@H]5[C@H](O)[C@H]3O)[C@H]3COC(=O)[C@H]23)OCO4)cc(OC)c1O [etoposide] please.
Result: 2310
